- Test system: Torulopsis glabrata ERH-BC9938274
- assay_remarks: In vitro study of inhibition of growth and lethality against yeast (MIC/MLC susceptibility test), isolate F
- Format: cell-based
- experimental_setup: Nakaseomyces glabratus, ERHBC9938274, 24 h, Torulopsis glabrata, 1st pair of lines, read at 24 hr; isolate assigned by line order; read-out: Minimum Inhibitory Conc. (MIC), 24 hr.
experimental_readout: MIC (µg/mL)

INSERT INTO results (compound, measure_unit, inequality_symbol, reported_measurement) VALUES
  ('C[N+](C)(C)C(Cc1ccccc1)C(=O)OCCCCCCCCOc1ccc(OCc2ccccc2)cc1.[I-] (stereo not shown)', 'µg/mL', '=', 2),
  ('Cc1[nH]c2ccccc2c1/C=C/C1=[N+](C)c2ccccc2C1(C)C.[Cl-]', 'µg/mL', '>', 34),
  ('COC(=O)c1cc2ccccc2[n+](C)c1-c1c[nH]c2ccccc12.[I-]', 'µg/mL', '=', 32),
  ('C[N+](C)(C)c1ccc(CC(=O)OCCCCCCCCOc2ccc(OCc3ccccc3)cc2)cc1.[I-]', 'µg/mL', '=', 0.5);
